meta.source: patent US20150126545A1

TEST: Solubility of free base in various media
Type: physicochemical
CONDITION_SUMMARY: PEG 300, organic solvent or mixture; read-out: Solubility

{"columns": ["GIVEN_SMILES", "solubility / mg/mL"],
 "data": [
  ["Nc1ncc(-c2cnn(CCO)c2)c2scc(-c3ccc(NC(=O)Nc4cccc(F)c4)cc3)c12", 20]
]}

====

TEST: Solubility of free base in various media
Assay type: physicochemical
CONDITION_SUMMARY: DMA, organic solvent or mixture; read-out: Solubility
QUANTITY_KIND: solubility

{"columns": ["GIVEN_SMILES", "EXPERIMENTAL_VALUE"],
 "data": [
  ["Nc1ncc(-c2cnn(CCO)c2)c2scc(-c3ccc(NC(=O)Nc4cccc(F)c4)cc3)c12", "35 to 50 mg/mL"]
]}
